These data points were gathered from patent US20260193326A1.

- target: T1, AAV8 (adeno-associated virus 8)
- T1 construct: also called adeno-associated virus serotype 8
- procedureDetails: SPR, AAV amine-coupled to CM5 chip;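 also: nanobodies flowed as analyte at seven concentrations spanning 1–100 nM over immobilized AAV (500–800 RU), kinetic constants derived by fitting the binding curves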
Please provide measured pKd for the entries that follow.
One number for each entry, as −log10 of the molar value.

Give the measured pKd of A4-062 (VHH) VHH: VQLQESGGGLVQAGGSLRLSCAASGSSFSINAMGWYRQAPGKQRELVATVTRGGTTNYADSVKGRFTISRDNPKNTVYLQMNSLRPEDTAVYYCHLDEVRESSWTTSNLWGQGTQVTVSS .
8.86

Next binder, pKd to be filled in.
Give the measured pKd of A4-086 (VHH) VHH: VQLQESGGGLVQPGGSLRLSCAASGSRFSLNTMGWYRQAPGKQRELVAAVTRGGNTNYADFVKGRFTISRDNAKNTVYLQMNSLRPEDTAVYYCHVDELRESSWTTSNLWGQGTQVTVSS .
9.12
